# inhibition at 1 µM values compiled below
molecular target: EPHA5 (Homo sapiens, UniProt P54756); experiment: Tyrosine kinase inhibition assay; format: biochemical; settings: single concentration 1.0 μM, read-out: percent inhibition
Sequence (P54756 25-1037): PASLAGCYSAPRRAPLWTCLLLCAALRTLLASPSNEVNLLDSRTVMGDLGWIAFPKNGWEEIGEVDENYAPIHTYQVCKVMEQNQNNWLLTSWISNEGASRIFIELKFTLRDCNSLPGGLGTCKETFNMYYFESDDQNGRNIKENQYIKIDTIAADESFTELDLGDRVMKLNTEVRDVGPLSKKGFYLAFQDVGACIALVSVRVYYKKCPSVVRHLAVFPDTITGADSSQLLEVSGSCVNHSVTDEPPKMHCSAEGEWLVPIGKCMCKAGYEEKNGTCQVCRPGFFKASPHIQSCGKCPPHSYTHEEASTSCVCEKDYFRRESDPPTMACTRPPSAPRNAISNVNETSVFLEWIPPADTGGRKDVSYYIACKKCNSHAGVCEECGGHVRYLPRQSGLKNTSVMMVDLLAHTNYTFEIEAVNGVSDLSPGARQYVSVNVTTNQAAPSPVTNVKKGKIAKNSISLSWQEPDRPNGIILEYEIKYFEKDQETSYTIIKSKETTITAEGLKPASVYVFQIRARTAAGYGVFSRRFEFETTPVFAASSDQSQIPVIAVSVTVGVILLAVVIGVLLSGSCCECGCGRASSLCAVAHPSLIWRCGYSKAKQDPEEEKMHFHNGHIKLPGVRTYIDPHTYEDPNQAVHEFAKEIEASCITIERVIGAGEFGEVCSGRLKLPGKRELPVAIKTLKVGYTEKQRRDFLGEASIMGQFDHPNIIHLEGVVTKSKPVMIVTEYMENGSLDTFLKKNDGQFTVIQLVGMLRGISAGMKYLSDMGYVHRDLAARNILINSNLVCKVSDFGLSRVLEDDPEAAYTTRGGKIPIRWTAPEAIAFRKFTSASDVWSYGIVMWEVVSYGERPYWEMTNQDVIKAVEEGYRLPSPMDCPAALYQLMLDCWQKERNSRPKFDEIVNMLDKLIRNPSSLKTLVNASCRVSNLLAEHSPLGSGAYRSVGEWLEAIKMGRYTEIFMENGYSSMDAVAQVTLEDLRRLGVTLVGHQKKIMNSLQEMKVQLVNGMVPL
API: value field is a number in %; no unit string.

Some solved entries appear below for comparison.
| compound | quantity_kind | number |
| --- | --- | --- |
| COc1cc2nccc(Oc3ccc(NC(=O)C4(C(=O)Nc5ccc(F)cc5)CC4)cc3F)c2cc1Oc1ccc(N)cc1F [Cbo-23] | inhibition at 1 µM | 99 |
| COc1cc2nccc(Oc3ccc(NC(=O)C4(C(=O)Nc5ccc(F)cc5)CC4)cc3)c2cc1OC [Cabozantinib, reference compound] | inhibition at 1 µM | 100 |
| COc1cc2nccc(Oc3ccc(NC(=O)C4(NC(=O)c5ccc(F)cc5)CC4)cc3F)c2cc1Oc1c(F)cc(N)cc1F [Cbo-14] | inhibition at 1 µM | 92 |
| COc1cc2nccc(Oc3ccc(NC(=O)C4(NC(=O)c5ccc(F)cc5)CC4)cc3F)c2cc1Oc1ccc(N)cc1F [Cbo-10] | inhibition at 1 µM | 87 |

Next compound, inhibition at 1 µM to be filled in.
Request: Consider the compound shown here: COc1cc2nccc(Oc3ccc(NC(=O)C4(NC(=O)c5ccc(F)cc5)CC4)cc3F)c2cc1OC [Cbo-02] What is its recorded inhibition at 1 µM?
Response: 41

---

molecular target: FLT1 (VEGFR1) (Homo sapiens, UniProt P17948); assay: Tyrosine kinase inhibition assay; format: biochemical; conditions: single concentration 1.0 μM, read-out: percent inhibition
Sequence (P17948 27-1338): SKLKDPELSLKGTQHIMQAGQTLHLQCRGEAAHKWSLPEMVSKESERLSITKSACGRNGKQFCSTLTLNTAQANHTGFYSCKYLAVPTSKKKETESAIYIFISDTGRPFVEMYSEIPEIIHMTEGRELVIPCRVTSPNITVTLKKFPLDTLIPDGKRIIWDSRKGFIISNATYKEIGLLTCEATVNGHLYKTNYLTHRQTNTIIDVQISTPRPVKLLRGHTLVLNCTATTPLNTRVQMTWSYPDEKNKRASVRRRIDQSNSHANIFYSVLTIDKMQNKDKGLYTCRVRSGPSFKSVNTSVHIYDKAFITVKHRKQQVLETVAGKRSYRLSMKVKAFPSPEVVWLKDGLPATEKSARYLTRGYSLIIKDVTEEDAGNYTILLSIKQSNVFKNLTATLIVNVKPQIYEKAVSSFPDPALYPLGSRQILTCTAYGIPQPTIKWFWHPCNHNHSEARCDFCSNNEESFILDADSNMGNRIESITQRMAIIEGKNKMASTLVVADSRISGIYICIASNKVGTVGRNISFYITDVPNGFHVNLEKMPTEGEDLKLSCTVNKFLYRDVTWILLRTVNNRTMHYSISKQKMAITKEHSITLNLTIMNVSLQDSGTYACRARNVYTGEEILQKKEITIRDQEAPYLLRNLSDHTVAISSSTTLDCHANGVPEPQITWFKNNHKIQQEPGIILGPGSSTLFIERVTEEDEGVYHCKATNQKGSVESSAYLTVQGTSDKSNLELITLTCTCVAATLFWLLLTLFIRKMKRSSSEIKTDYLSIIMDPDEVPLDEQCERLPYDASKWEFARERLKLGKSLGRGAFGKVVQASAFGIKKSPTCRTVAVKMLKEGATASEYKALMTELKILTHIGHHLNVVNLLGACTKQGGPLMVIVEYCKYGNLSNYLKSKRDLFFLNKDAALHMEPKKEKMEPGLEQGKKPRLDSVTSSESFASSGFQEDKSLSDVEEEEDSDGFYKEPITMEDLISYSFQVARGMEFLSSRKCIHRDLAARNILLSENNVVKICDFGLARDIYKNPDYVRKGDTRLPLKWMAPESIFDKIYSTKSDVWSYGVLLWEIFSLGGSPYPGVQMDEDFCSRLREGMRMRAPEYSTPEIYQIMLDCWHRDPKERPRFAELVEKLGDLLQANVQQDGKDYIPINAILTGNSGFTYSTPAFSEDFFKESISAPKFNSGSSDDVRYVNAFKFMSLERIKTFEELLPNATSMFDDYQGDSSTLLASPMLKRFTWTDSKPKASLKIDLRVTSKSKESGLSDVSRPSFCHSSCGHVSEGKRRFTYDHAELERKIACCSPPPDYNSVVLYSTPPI
quantity_kind: inhibition at 1 µM (%)
API: value field is a number in %; no unit string.

Some solved entries appear below for comparison.
| compound | quantity_kind | number |
| --- | --- | --- |
| COc1cc2nccc(Oc3ccc(NC(=O)C4(NC(=O)c5ccc(F)cc5)CC4)cc3F)c2cc1Oc1ccc(N)cc1F [Cbo-10] | inhibition at 1 µM | 61 |
| COc1cc2nccc(Oc3ccc(NC(=O)C4(NC(=O)c5ccc(F)cc5)CC4)cc3F)c2cc1OC [Cbo-02] | inhibition at 1 µM | 30 |
| COc1cc2nccc(Oc3ccc(NC(=O)C4(C(=O)Nc5ccc(F)cc5)CC4)cc3)c2cc1OC [Cabozantinib, reference compound] | inhibition at 1 µM | 67 |
| COc1cc2nccc(Oc3ccc(NC(=O)C4(C(=O)Nc5ccc(F)cc5)CC4)cc3F)c2cc1Oc1ccc(N)cc1F [Cbo-23] | inhibition at 1 µM | 76 |

Request: Consider the compound shown here: COc1cc2nccc(Oc3ccc(NC(=O)C4(NC(=O)c5ccc(F)cc5)CC4)cc3F)c2cc1Oc1c(F)cc(N)cc1F [Cbo-14] What is its recorded inhibition at 1 µM?
Response: 62

---

# inhibition at 1 µM values compiled below
molecular target: BLK (Homo sapiens, UniProt P51451); assay: Tyrosine kinase inhibition assay; format: biochemical; conditions: single concentration 1.0 μM, read-out: percent inhibition
Sequence (P51451 whole entry): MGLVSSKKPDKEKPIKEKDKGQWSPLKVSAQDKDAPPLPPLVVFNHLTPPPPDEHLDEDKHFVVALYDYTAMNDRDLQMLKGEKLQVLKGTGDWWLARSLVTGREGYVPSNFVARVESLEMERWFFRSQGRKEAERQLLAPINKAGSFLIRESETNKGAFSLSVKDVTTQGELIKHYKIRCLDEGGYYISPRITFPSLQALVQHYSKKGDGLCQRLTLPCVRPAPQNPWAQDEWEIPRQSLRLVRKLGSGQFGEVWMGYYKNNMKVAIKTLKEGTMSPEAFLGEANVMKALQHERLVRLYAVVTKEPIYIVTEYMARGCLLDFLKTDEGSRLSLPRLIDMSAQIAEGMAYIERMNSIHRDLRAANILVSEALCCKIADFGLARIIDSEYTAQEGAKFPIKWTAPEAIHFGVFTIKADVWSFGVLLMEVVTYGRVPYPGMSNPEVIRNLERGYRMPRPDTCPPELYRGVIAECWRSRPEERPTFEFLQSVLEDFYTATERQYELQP
Answer by giving the amount and then stating its unit.

| compound | study_system | quantity_kind | result |
| --- | --- | --- | --- |
| COc1cc2nccc(Oc3ccc(NC(=O)C4(C(=O)Nc5ccc(F)cc5)CC4)cc3F)c2cc1Oc1ccc(N)cc1F [Cbo-23] | BLK (Homo sapiens, UniProt P51451) | inhibition at 1 µM | 93% |

Request: State its inhibition at 1 µM on BLK (Homo sapiens, UniProt P51451): COc1cc2nccc(Oc3ccc(NC(=O)C4(NC(=O)c5ccc(F)cc5)CC4)cc3F)c2cc1Oc1c(F)cc(N)cc1F [Cbo-14]
Response: 80%

Request: State its inhibition at 1 µM on BLK (Homo sapiens, UniProt P51451): COc1cc2nccc(Oc3ccc(NC(=O)C4(NC(=O)c5ccc(F)cc5)CC4)cc3F)c2cc1OC [Cbo-02]
Response: 61%

Request: State its inhibition at 1 µM on BLK (Homo sapiens, UniProt P51451): COc1cc2nccc(Oc3ccc(NC(=O)C4(NC(=O)c5ccc(F)cc5)CC4)cc3F)c2cc1Oc1ccc(N)cc1F [Cbo-10]
Response: 80%

Request: State its inhibition at 1 µM on BLK (Homo sapiens, UniProt P51451): COc1cc2nccc(Oc3ccc(NC(=O)C4(C(=O)Nc5ccc(F)cc5)CC4)cc3)c2cc1OC [Cabozantinib, reference compound]
Response: 83%

---

target: PDGFRA (PDGFR alpha) (Homo sapiens); test: Tyrosine kinase inhibition assay; type: biochemical; settings: single concentration 1.0 μM, read-out: percent inhibition
Sequence (P16234 24-1089): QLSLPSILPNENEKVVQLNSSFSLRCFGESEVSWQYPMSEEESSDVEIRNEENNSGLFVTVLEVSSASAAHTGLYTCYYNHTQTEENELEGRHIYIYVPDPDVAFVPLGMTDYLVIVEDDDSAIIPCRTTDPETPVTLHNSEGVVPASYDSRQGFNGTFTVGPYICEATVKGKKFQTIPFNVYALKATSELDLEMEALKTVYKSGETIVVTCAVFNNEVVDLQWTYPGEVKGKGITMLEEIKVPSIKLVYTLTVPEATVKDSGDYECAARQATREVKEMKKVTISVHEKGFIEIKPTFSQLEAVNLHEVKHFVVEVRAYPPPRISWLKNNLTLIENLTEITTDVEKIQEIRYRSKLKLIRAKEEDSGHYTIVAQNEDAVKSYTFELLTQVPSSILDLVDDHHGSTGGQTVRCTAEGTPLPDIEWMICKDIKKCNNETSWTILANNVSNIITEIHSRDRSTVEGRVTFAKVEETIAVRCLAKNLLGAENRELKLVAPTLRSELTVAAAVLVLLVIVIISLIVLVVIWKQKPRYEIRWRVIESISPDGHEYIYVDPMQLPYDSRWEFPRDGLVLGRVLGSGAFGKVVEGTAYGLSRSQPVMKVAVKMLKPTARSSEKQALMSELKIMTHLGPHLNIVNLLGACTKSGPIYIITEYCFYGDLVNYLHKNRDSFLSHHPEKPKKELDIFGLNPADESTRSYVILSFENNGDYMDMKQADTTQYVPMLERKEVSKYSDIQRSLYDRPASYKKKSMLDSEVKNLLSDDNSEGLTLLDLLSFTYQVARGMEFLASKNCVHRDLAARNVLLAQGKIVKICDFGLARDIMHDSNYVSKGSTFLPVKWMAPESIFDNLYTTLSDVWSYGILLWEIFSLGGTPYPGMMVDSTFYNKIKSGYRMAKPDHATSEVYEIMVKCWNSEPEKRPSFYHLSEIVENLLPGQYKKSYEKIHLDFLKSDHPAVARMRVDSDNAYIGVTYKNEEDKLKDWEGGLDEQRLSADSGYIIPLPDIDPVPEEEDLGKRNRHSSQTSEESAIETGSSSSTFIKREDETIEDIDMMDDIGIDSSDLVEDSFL
quantity_kind: inhibition at 1 µM (%)
API: value field is a number in %; no unit string.

Some solved entries appear below for comparison.
| molecule | study_system | number |
| --- | --- | --- |
| COc1cc2nccc(Oc3ccc(NC(=O)C4(C(=O)Nc5ccc(F)cc5)CC4)cc3)c2cc1OC [Cabozantinib, reference compound] | PDGFRA (PDGFR alpha) (Homo sapiens) | 92 |
| COc1cc2nccc(Oc3ccc(NC(=O)C4(C(=O)Nc5ccc(F)cc5)CC4)cc3F)c2cc1Oc1ccc(N)cc1F | PDGFRA (PDGFR alpha) (Homo sapiens) | 95 |
| COc1cc2nccc(Oc3ccc(NC(=O)C4(NC(=O)c5ccc(F)cc5)CC4)cc3F)c2cc1Oc1c(F)cc(N)cc1F | PDGFRA (PDGFR alpha) (Homo sapiens) | 94 |
| COc1cc2nccc(Oc3ccc(NC(=O)C4(NC(=O)c5ccc(F)cc5)CC4)cc3F)c2cc1Oc1ccc(N)cc1F | PDGFRA (PDGFR alpha) (Homo sapiens) | 84 |

Next molecule, inhibition at 1 µM to be filled in.
Request: Consider the molecule shown here: "COc1cc2nccc(Oc3ccc(NC(=O)C4(NC(=O)c5ccc(F)cc5)CC4)cc3F)c2cc1OC" What is its recorded inhibition at 1 µM?
Response: 48

---

# IC50 values compiled below
target: MET (cMet) (Homo sapiens); assay: Tyrosine kinase inhibition assay; format: biochemical; settings: read-out: IC50 of compound
API: value field is a number in nM; no unit string.

| compound | quantity_kind | units_text | number |
| --- | --- | --- | --- |
| CNC(=O)c1cc2c(Oc3ccc(NC(=O)C4(C(=O)Nc5ccc(F)cc5)CC4)cc3)ccnc2cc1OC [Zanzalintinib, reference compound] | IC50 | nM | 4.26 |

Request: Consider the compound shown here: COc1cc2nccc(Oc3ccc(NC(=O)C4(C(=O)Nc5ccc(F)cc5)CC4)cc3F)c2cc1Oc1ccc(N)cc1F [Cbo-23] What is its recorded IC50?
Response: 35.2

---

molecular target: EPHB4 (Homo sapiens, UniProt P54760); assay: Tyrosine kinase inhibition assay; type: biochemical; conditions: single concentration 1.0 μM, read-out: percent inhibition
quantity_kind: inhibition at 1 µM (%)
API: value field is a number in %; no unit string.

| molecule | inhibition at 1 µM / % |
| --- | --- |
| COc1cc2nccc(Oc3ccc(NC(=O)C4(NC(=O)c5ccc(F)cc5)CC4)cc3F)c2cc1OC | 27 |

Request: Consider the molecule shown here: "COc1cc2nccc(Oc3ccc(NC(=O)C4(NC(=O)c5ccc(F)cc5)CC4)cc3F)c2cc1Oc1ccc(N)cc1F" What is its recorded inhibition at 1 µM?
Response: 50

Request: Consider the molecule shown here: "COc1cc2nccc(Oc3ccc(NC(=O)C4(NC(=O)c5ccc(F)cc5)CC4)cc3F)c2cc1Oc1c(F)cc(N)cc1F" What is its recorded inhibition at 1 µM?
Response: 76

Request: Consider the molecule shown here: COc1cc2nccc(Oc3ccc(NC(=O)C4(C(=O)Nc5ccc(F)cc5)CC4)cc3)c2cc1OC [Cabozantinib, reference compound] What is its recorded inhibition at 1 µM?
Response: 93

Request: Consider the molecule shown here: "COc1cc2nccc(Oc3ccc(NC(=O)C4(C(=O)Nc5ccc(F)cc5)CC4)cc3F)c2cc1Oc1ccc(N)cc1F" What is its recorded inhibition at 1 µM?
Response: 103

---

biological target: UniProt:P07948; assay: Tyrosine kinase inhibition assay; format: biochemical
Sequence (P07948 1-491 isoform P07948-2): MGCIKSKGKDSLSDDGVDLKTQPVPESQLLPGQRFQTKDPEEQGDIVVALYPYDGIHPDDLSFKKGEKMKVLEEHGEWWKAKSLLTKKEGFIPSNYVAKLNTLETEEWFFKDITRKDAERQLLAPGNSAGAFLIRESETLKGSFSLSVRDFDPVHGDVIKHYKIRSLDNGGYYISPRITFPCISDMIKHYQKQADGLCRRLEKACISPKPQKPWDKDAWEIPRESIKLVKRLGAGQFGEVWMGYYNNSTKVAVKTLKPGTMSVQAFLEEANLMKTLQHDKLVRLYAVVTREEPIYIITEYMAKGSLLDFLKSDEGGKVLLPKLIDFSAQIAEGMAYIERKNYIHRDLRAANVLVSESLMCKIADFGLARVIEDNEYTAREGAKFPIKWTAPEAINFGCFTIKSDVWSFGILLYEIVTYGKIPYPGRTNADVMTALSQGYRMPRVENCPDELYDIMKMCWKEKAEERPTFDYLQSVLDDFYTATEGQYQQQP
quantity_kind: IC50 (nM)
API: value field is a number in nM; no unit string.

Request: Consider the compound shown here: COc1cc2nccc(Oc3ccc(NC(=O)C4(C(=O)Nc5ccc(F)cc5)CC4)cc3)c2cc1OC [Cabozantinib, reference compound] What is its recorded IC50?
Response: 67.7

---

molecular target: AURKC (Aurora C) (Homo sapiens); assay: Tyrosine kinase inhibition assay; format: biochemical; settings: single concentration 1.0 μM, read-out: percent inhibition
Sequence (Q9UQB9 whole entry): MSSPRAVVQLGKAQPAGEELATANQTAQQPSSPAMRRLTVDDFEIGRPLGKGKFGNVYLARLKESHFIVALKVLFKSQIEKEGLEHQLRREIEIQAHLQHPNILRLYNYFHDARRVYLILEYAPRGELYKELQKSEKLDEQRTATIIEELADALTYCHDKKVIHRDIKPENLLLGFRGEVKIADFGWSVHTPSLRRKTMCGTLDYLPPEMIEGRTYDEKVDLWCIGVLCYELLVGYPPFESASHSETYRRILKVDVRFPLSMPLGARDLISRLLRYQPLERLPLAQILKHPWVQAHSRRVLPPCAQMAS
# inhibition at 1 µM values compiled below
API: value field is a number in %; no unit string.

Some solved entries appear below for comparison.
| compound | units_text | inhibition at 1 µM |
| --- | --- | --- |
| COc1cc2nccc(Oc3ccc(NC(=O)C4(NC(=O)c5ccc(F)cc5)CC4)cc3F)c2cc1Oc1c(F)cc(N)cc1F | % | 59 |
| COc1cc2nccc(Oc3ccc(NC(=O)C4(C(=O)Nc5ccc(F)cc5)CC4)cc3)c2cc1OC [Cabozantinib, reference compound] | % | 59 |
| COc1cc2nccc(Oc3ccc(NC(=O)C4(NC(=O)c5ccc(F)cc5)CC4)cc3F)c2cc1OC | % | 74 |

Request: Consider the compound shown here: "COc1cc2nccc(Oc3ccc(NC(=O)C4(C(=O)Nc5ccc(F)cc5)CC4)cc3F)c2cc1Oc1ccc(N)cc1F" What is its recorded inhibition at 1 µM?
Response: 41

Request: Consider the compound shown here: "COc1cc2nccc(Oc3ccc(NC(=O)C4(NC(=O)c5ccc(F)cc5)CC4)cc3F)c2cc1Oc1ccc(N)cc1F" What is its recorded inhibition at 1 µM?
Response: 63
